These entries and their values trace back to ChEMBL document CHEMBL1127517.

target: Sodium-dependent dopamine transporter (Rattus norvegicus, UniProt P23977); test: Inhibitory constant towards reuptake of [125I]-12 from dopamine transporter in rat striatal membranes; type: cell membranes, Membrane
Sequence (P23977 whole entry): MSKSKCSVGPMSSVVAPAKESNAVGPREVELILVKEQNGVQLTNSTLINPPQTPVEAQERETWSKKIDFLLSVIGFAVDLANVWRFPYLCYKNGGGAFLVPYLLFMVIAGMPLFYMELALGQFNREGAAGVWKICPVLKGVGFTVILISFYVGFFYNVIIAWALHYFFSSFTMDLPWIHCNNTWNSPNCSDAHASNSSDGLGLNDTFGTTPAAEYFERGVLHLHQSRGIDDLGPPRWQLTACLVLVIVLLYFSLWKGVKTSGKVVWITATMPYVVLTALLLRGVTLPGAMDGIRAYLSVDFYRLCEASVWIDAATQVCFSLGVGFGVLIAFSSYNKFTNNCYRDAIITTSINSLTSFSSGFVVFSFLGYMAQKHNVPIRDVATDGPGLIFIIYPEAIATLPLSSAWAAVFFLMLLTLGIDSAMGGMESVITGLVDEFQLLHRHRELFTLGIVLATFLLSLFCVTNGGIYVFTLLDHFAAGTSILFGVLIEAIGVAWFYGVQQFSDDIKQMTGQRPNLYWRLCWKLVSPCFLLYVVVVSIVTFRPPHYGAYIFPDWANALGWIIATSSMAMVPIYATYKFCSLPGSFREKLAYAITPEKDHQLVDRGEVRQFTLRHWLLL
readout name: pKi
pKi field: float, defined as -log10 of concentration (mol/L).

molecule="COC(=O)C1C(c2ccc(Cl)cc2)CC2CCC1N2C/C=C\\I (stereo not drawn)" readout_name=pKi recorded_measurement=8.90
molecule="OC1(c2ccc(Cl)cc2)c2ccccc2C2=NCCN21 (stereo not drawn)" readout_name=pKi recorded_measurement=7.49

From here, focus on the item given below.
For the molecule COC(=O)C1C(c2ccc(Cl)cc2)CC2CCC1N2C/C=C/I (stereo not drawn) , what pKi is on record? 9.16
